// growth lookup, one value per entry
- Test system: MDA-MB-468 breast
- assay_text: NCI-60 one-dose screen, 48 h (100 = growth as untreated, 0 = no growth, -100 = all killed)
- test_conditions: 10 µM unless noted
This is part of a sample that, as a whole, favours compounds with a hit. Of some 83,000 tested, about 20% had one in any assay.
Field: numeric (%). Do not append units.

CC1(C)C(N)=Nc2cc(OCCCN3Cc4ccccc4C3)c(OCC3CC3)cc21    47.3
COc1cc(C2CC(c3ccccc3)=NN2C=O)ccc1Oc1ccnc2cc(Cl)ccc12 (stereo not drawn)    16.5

In: GET /values?readout=growth&item= `CC1(C)N=C(N)N=C(N)N1c1ccc(CCCCc2ccccc2)c(Cl)c1`
Out: -20.8

----------
- Test system: A549/ATCC NSCLC
- assay_text: NCI-60 one-dose screen, 48 h
- test_conditions: 10 µM
About 83,000 compounds went through this panel and 20% of them were active in at least one assay; those are over-represented in the sample as a whole. Activity calls are given as the source filed them. Rule for the calls: active = growth percent below 10; inactive = the rest.
Give one outcome, nothing more. List: active, inactive

Worked cases, answers included:
Cc1ccc(S(=O)(=O)N2CCN(S(=O)(=O)c3oc(-c4ccccc4)nc3C#N)CC2)cc1    inactive
Cc1ccc(COc2ccc(NC(=O)Nc3ccc(Cl)c(C(F)(F)F)c3)cc2)cc1    inactive
COc1ccc(C2c3sc4ccc(C)cc4c3Oc3nc[nH]c(=O)c32)cc1 (stereo unspecified)    inactive
CC1(C)CC[C@]2(C(=O)O)CC[C@]3(C)C(=CCC4[C@@]5(C)C[C@@H](O)[C@@H]6OC(c7cccc(F)c7)OC[C@@]6(C)C5CC[C@]43C)C2C1 (stereo partly specified)    inactive
O=[N+]([O-])c1cccc(-c2nnc3c(/C=C/c4ccccc4O)nc4ccccc4n23)c1    inactive

In: Hi, do you know how `O=C(O)CCN1C(=O)/C(=C/C=C/c2ccc([N+](=O)[O-])o2)SC1=S` came out in this test?
Out: inactive

In: Hi, do you know how `COc1ccc(C(=O)COc2ccc(NC(=O)Nc3ccc(Cl)c(C(F)(F)F)c3)cc2)cc1` came out in this test?
Out: inactive

----------
// growth lookup, one value per entry
- System: MDA-MB-468 breast
- assay_text: NCI-60 one-dose screen, 48 h (100 = growth as untreated, 0 = no growth, -100 = all killed)
- test_conditions: 10 µM unless noted
About 83,000 compounds went through this panel and 20% of them were active in at least one assay; those are over-represented in the sample as a whole.
Field: numeric (%). Do not append units.

C#CC(=O)/C=C/CCCCCCC#CC(=O)CCC(=O)C#CCCCCCC/C=C/C(=O)C#C    -10

In: What value of growth on MDA-MB-468 breast does `Cn1cc(-c2cnc3ccc(NC(=O)Nc4ccc(F)c(Br)c4)cc3n2)cn1` have?
Out: -6.86

In: What value of growth on MDA-MB-468 breast does CCN1CCC2(CC1)OC(c1ccccc1)C(c1ccccc1)O2 (stereo not drawn) have?
Out: 102

In: What value of growth on MDA-MB-468 breast does `O=[N+]([O-])c1cc(S(=O)(=O)c2ccc(F)c([N+](=O)[O-])c2)ccc1F` have?
Out: 88.4

In: What value of growth on MDA-MB-468 breast does `CCc1ccc(-c2ccc(NC3CCCCCC3)nn2)cc1S(N)(=O)=O` have?
Out: 102

In: What value of growth on MDA-MB-468 breast does `O=C1c2cc3c(cc2-c2c1c1cc(Cl)c(Cl)cc1c(=O)n2CCCn1ccnc1)OCO3` have?
Out: -38.5

In: What value of growth on MDA-MB-468 breast does `Cc1ccc(Cl)cc1NC(=O)c1cc2ccccc2cc1O` have?
Out: -58.7

In: What value of growth on MDA-MB-468 breast does `COc1ccc([C@H]2[C@H](C(=O)Nc3cccnc3)c3ccccc3C(=O)N2c2ccccc2)cc1` have?
Out: 97.7

----------
// growth lookup, one value per entry
- Tested on: MDA-MB-468 breast
- assay_text: NCI-60 one-dose screen, 48 h (100 = growth as untreated, 0 = no growth, -100 = all killed)
- test_conditions: 10 µM unless noted
About 83,000 compounds went through this panel and 20% of them were active in at least one assay; those are over-represented in the sample as a whole. Activity calls are given as the source filed them. Rule for the calls: active = growth percent below 10; inactive = the rest.

Sample records with growth:
CC(=O)Oc1ccc(N2C(=O)C(Cl)=C(Nc3cccc(C(F)(F)F)c3)C2=O)cc1    96.1% (inactive)
COc1cc(-c2nc3sccn3c2-c2ccnc(S(C)(=O)=O)n2)ccc1F    72.3% (inactive)
CCOC(=O)C1=C(C(=O)OCC)N(c2cc(OC)c(OC)c(OC)c2)C(N)=C(C#N)C1c1cc(=O)[nH]c2ccccc12 (stereo not given)    92% (inactive)
COc1ccc(/C=C2\C(=O)N=C3N2NC(c2cc(Br)ccc2O)C=C(C)N3c2ccccc2)cc1 (stereo not given)    90.7% (inactive)
O=S(=O)(NCCCNc1nccc(-n2cnc3ccccc32)n1)c1ccc(F)cc1    50.2% (inactive)
O=c1[nH]c2c(s1)CCCC2CN1CCCCC1 (stereo not given)    109% (inactive)
CCn1cc(C(=O)NNC(=S)Nc2ccc(C)cc2)c(=O)c2ccc(C)nc21    88% (inactive)
N#Cc1ccccc1OCC(=O)Nc1nc2c(s1)COc1ccccc1-2    98.7% (inactive)

In: GET /values?readout=growth&item= CCOC(=O)N1C=CC2C=CC1C1C=CC=CC2N1C(=O)OCC (stereo not given)
Out: 53.1% (inactive)

In: GET /values?readout=growth&item= `Cc1ccc(NC(=O)Nc2ccc(Nc3ncnc4sc5c(c34)CCOC5)cc2)cc1Cl`
Out: 102% (inactive)

----------
- Tested on: MDA-MB-468 breast
- assay_text: NCI-60 one-dose screen, 48 h
- test_conditions: 10 µM unless noted
The panel holds about 83,000 compounds, 20% with a hit somewhere; the sample as a whole holds those more often. Active and inactive are the calls of the source. How the source made its calls: active means growth percent below 10; inactive means the rest.
Give one outcome, nothing more. List: active, inactive

Cn1cc(-c2nc(-c3c[nH]c4ncccc34)cs2)c2cc(Br)ccc21    active
C=CC(O)CCC (stereo unspecified)    inactive
CN(C)c1ccc(C(=C2C=CC(=[N+](C)C)C=C2)c2ccc(N(C)C)cc2)cc1 (tested in a mixture with another compound)    active
O=C(NCCNc1nccc(-c2c(-c3cccc(O)c3)nc3sccn23)n1)c1ccccc1    inactive
C/C(=N/NC(N)=O)c1ccco1    inactive

Read the next record carefully.
In: Hi, do you know how `CCCCN(CC)CCCCCCCCCCN1CCCc2cc(OC)ccc21` came out in this test?
Out: inactive

----------
- System: MDA-MB-468 breast
- assay_text: NCI-60 one-dose screen, 48 h (100 = growth as untreated, 0 = no growth, -100 = all killed)
- test_conditions: 10 µM unless noted
This is part of a sample that, as a whole, favours compounds with a hit. Of some 83,000 tested, about 20% had one in any assay.
result_type: growth (%)
Field: numeric (%). Do not append units.

Sample records with growth:
COc1ccc2[nH]cc(-c3nc(-c4cn(C)c5c(Cl)nccc45)cs3)c2c1    18.1
Cc1cc(O)c(C(C)C)cc1Cl    114
COc1ccc(OC)c(CCn2cncc2-c2c[nH]c3ccccc23)c1    41
COc1cc(C(=O)/C=C/c2c(-c3cccs3)nc3ccccn23)cc(OC)c1OC    -30.4
O=C1/C(=C\c2coc3ccccc3c2=O)c2ccccc2N1c1c(Cl)cccc1Cl    44.9
Cc1cccc2c1NC(=O)C2(c1ccc(O)cc1)c1ccc(O)cc1    -11
COc1cc(-c2nn(-c3cccc(NC(=O)CCN4CCN(Cc5ccccc5)CC4)c3)cc2-c2ccncc2)ccc1Cl    1.17
Oc1c(CN2CCC(N3CCCCC3)CC2)cc(Cc2cc(CN3CCC(N4CCCCC4)CC3)c(O)c3ncccc23)c2cccnc12    -39.2

In: GET /values?readout=growth&item= `COc1ccc(S(=O)(=O)NCCCNc2nccc(-c3c(-c4ccc(F)cc4)nc4sccn34)n2)cc1`
Out: 61.2

In: GET /values?readout=growth&item= `O=C(Oc1ccc(Cl)cc1[N+](=O)[O-])Oc1ccc(Cl)cc1[N+](=O)[O-]`
Out: 114

In: GET /values?readout=growth&item= `COc1cccc(NCc2nnc(Nc3ccc(Cl)cc3)c3ccccc23)c1`
Out: -21.9

In: GET /values?readout=growth&item= `O=C(/C=C/c1ccccc1)n1c(-c2ccc(Cl)cc2)nc2ccccc21`
Out: -6.61

In: GET /values?readout=growth&item= `Cc1nn(-c2ccccc2)c(N2CCCCC2)c1/C=N/NC(=O)Cn1c(=O)sc2ccccc21`
Out: 85.5

In: GET /values?readout=growth&item= `CCN(CC)CCSCCCNc1c(C)cnc2cc(Cl)ccc12`
Out: 85.6

In: GET /values?readout=growth&item= `Nc1nccc2c1ccn2-c1ccc(NC(=O)c2ccc(N3CCOCC3)c(C(F)(F)F)c2)cc1`
Out: 27.6

In: GET /values?readout=growth&item= `Cc1nc(Nc2ccc(NC(=S)Nc3ccccc3)cc2)c2ccccc2n1`
Out: 109

In: GET /values?readout=growth&item= O=C1NC(=O)C2(CCCC2C(=O)O)N1 (configuration not stated)
Out: 107

In: GET /values?readout=growth&item= `Cc1ccc2[nH]c3nc4cccnc4c(C)c3c2c1`
Out: -35

In: GET /values?readout=growth&item= `Cc1nc(N)[nH]c(=O)c1C`
Out: 103

In: GET /values?readout=growth&item= `O=C(O)C#Cc1ccc(Cl)cc1`
Out: 101
